Reference for the values: ChEMBL document CHEMBL1132650

molecular target: Glutamate receptor ionotropic, AMPA (Rattus norvegicus, UniProt P19490+P19491+P19492+P19493); test: Binding affinity towards ionotropic glutamate receptor AMPA in rat cortical membranes using [3H]AMPA radioligand; format: cell membranes
pKi: −log10 of the molar value.
experimental endpoint: pKi

Item under review: CCOC(=O)c1nc2c(=O)[nH]c3cc(Cl)cc(Cl)c3n2n1 . Reported pKi?
5.31

I. O=C(O)c1nc2c(=O)[nH]c3ccccc3n2n1
II. COC(=O)CNC(=O)c1nc2c(=O)[nH]c3cc(Cl)ccc3n2n1
III. O=C(O)c1nc2c(=O)[nH]c3cc(Cl)c(Cl)cc3n2n1
IV. CCOC(=O)c1nc2c(=O)[nH]c3ccc(Cl)cc3n2n1
Hey, quick one: sort these by pKi, largest value first please. Form entry: labels listed in requested order.
III, II, I, IV

====

target: UniProt P35439; assay: The compound was tested for its binding affinity towards Glycine/NMDA receptor in rat cortical membranes using [3H]glycine as radioligand; format: cell membranes
pKi: −log10 of the molar value.
experimental endpoint: pKi

Item under review: O=C(NO)c1nc2c(O)nc3cc(Cl)ccc3n2n1 . Reported pKi?
5.96

P. O=C(O)c1nc2c(=O)[nH]c3cc(Cl)c(Cl)cc3n2n1
Q. NNC(=O)c1nc2c(=O)[nH]c3cc(Cl)ccc3n2n1
# min-compare on pKi between P and Q Kindly give the label for the entry you pick.
Q

====

molecular target: Glutamate receptor ionotropic, AMPA (Rattus norvegicus, UniProt P19490+P19491+P19492+P19493); assay: Binding affinity towards ionotropic glutamate receptor AMPA in rat cortical membranes using [3H]AMPA radioligand; type: cell membranes
experimental endpoint: Ki (µM)

Below: 2 molecules and their reported Ki.
Item under review: CCOC(=O)c1nc2c(O)nc3cc(Cl)ccc3n2n1 . Reported Ki?
2.6

Item under review: O=C(O)c1nc2c(O)nc3ccc([N+](=O)[O-])cc3n2n1 . Reported Ki?
10.7

a. N#CCc1nc2c(O)nc3cc(Cl)ccc3n2n1
b. O=C(O)c1nc2c(O)nc3cc(Cl)ccc3n2n1
c. CCOC(=O)c1nc2c(O)nc3cc(Cl)c(Cl)cc3n2n1
d. O=C(NCCO)c1nc2c(O)nc3cc(Cl)ccc3n2n1
e. O=C(O)c1nc2c(O)nc3cc(Cl)c([N+](=O)[O-])cc3n2n1
Hey, quick one: sort these by Ki, largest value first please. Form entry: labels listed in requested order.
c, d, a, e, b
(c: 33.9 µM, d: 7.7 µM, a: 2 µM, e: 1.2 µM, b: 0.78 µM)

====

biological target: Glutamate receptor ionotropic, AMPA (Rattus norvegicus, UniProt P19490+P19491+P19492+P19493); experiment: Binding affinity towards ionotropic glutamate receptor AMPA in rat cortical membranes using [3H]AMPA radioligand; type: cell membranes
pKi: −log10 of the molar value.
experimental endpoint: pKi

Below: 3 compounds and their reported pKi.
Item under review: O=C(O)c1nc2c(=O)[nH]c3cc(Br)ccc3n2n1 . Reported pKi?
5.36

Item under review: O=C(O)c1nc2c(O)nc3c([N+](=O)[O-])cc(Cl)cc3n2n1 . Reported pKi?
5.40

Item under review: NC(=O)c1nc2c(=O)[nH]c3cc(Cl)ccc3n2n1 . Reported pKi?
4.93

I. OCc1nc2c(O)nc3cc(Cl)ccc3n2n1
II. O=C(O)c1nc2c(=O)[nH]c3ccc(Cl)cc3n2n1
# min-compare on pKi between I and II Kindly give the label for the entry you pick.
II
(II: 4.74, I: 5.36)
